Exercise: state measured koff for each of the binders provided.
Target: T1, Human OSM (human, UniProt P13725 26-221)
T1 construct: Recombinant human OSM; also called hOSM; human Oncostatin M
T1 sequence: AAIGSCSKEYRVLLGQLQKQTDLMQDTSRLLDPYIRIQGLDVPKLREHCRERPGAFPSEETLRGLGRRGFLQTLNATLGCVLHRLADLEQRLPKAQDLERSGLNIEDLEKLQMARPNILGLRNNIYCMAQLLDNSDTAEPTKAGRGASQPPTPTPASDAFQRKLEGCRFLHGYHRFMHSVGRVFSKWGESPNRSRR
Assay: BIAcore kinetics, purified antibody
Reply with the number and its unit after it.

>  <binder>
Humanised 10G8 H1L4 (antibody, V domains shown) VH: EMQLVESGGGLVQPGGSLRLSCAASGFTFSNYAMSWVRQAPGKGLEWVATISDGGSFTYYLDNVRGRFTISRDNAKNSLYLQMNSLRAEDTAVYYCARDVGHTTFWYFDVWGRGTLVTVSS VL: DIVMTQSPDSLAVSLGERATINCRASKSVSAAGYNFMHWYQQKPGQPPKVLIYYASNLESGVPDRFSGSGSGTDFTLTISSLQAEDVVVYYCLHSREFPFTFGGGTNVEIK

>  <koff>
0.000135 s⁻¹

$$$$
>  <binder>
Humanised 10G8 H2L4 (antibody, V domains shown) VH: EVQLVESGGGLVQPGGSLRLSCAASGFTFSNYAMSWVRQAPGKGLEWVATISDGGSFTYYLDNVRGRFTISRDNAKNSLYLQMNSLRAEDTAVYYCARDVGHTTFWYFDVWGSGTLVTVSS VL: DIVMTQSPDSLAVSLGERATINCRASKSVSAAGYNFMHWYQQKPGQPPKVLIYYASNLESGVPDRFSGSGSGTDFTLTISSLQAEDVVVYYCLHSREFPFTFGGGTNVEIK

>  <koff>
0.000135 s⁻¹

$$$$

Please go through the list and note koff for each binder.
1. 15E10h, non-competitive anti-OSM humanised antibody (antibody, human IgG1, kappa, V domains shown, also called Humanised 15E10; humanised 15E10) VH: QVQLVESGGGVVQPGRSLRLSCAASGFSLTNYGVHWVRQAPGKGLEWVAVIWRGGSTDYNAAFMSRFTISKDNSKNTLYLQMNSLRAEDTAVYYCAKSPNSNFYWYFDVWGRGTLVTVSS VL: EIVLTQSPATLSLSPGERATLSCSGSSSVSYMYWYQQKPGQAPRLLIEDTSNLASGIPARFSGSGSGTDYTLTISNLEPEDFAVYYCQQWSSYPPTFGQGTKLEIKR
2. Humanised 10G8 H2L1 (antibody, V domains shown) VH: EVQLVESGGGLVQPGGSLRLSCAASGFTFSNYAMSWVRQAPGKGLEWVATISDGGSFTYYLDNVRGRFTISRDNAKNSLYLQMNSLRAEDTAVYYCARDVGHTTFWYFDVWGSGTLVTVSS VL: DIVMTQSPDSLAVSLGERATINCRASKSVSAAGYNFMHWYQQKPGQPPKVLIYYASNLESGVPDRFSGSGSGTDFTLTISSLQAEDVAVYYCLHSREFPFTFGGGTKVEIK

Result:
["0.000615 s⁻¹", "0.00014 s⁻¹"]

Could you tell me koff for each of these binders? They are listed below.
1. Humanised 10G8 H1L1 (antibody, V domains shown) VH: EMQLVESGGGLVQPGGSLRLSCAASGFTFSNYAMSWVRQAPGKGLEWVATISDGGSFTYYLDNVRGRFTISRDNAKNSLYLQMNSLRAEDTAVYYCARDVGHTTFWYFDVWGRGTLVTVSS VL: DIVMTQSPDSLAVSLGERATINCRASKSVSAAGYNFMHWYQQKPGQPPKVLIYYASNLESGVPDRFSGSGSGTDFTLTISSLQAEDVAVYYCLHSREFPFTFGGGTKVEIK
2. Humanised 10G8 H0L4 (antibody, V domains shown) VH: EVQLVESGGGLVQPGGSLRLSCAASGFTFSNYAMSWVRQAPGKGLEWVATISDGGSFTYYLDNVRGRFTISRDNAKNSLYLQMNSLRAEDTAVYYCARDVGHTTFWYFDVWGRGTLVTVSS VL: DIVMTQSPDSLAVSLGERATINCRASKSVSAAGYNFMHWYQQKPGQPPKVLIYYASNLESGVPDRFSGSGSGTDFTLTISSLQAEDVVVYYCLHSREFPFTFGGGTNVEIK
3. 10G8 chimaera (antibody, human IgG1, kappa, V domains shown, Mouse V regions on human gamma 1 wild type and human kappa constant regions; the entries called VH/VL domain (chimera) are full chains; also called 10G8 chimera; 10G8 Chimæra) VH: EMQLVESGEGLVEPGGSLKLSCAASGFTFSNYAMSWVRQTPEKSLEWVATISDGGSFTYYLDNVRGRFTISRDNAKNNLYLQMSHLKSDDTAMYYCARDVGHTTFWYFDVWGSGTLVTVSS VL: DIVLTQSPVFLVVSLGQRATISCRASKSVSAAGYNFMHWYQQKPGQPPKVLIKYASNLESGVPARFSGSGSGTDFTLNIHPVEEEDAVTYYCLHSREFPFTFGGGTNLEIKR

Result:
1. 0.000166 s⁻¹
2. 0.00014 s⁻¹
3. 0.000125 s⁻¹

Q: Item under review: Humanised 10G8 H0L1 (antibody, human IgG1, kappa, V domains shown, IgG1 kappa; mature H0 heavy chain and mature L1 light chain; also called Humanised 10G8 H0L1 parent) VH: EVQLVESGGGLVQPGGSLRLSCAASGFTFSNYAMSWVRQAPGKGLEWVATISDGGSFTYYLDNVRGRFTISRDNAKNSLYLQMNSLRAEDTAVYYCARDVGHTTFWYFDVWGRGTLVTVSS VL: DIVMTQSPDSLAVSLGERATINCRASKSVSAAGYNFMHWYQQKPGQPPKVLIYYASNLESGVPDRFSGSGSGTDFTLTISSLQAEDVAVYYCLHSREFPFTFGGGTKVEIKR . Reported koff?
Result: 0.000137 s⁻¹

// data source = patent US20130251724A1
